Hello, the source for this data is patent US20140213531A1, in case you need it.

Molecular target: Coagulation Factor Xa, from human plasma (human, UniProt P00742 41-488, limits assumed)
Sequence (P00742 41-488 limits assumed): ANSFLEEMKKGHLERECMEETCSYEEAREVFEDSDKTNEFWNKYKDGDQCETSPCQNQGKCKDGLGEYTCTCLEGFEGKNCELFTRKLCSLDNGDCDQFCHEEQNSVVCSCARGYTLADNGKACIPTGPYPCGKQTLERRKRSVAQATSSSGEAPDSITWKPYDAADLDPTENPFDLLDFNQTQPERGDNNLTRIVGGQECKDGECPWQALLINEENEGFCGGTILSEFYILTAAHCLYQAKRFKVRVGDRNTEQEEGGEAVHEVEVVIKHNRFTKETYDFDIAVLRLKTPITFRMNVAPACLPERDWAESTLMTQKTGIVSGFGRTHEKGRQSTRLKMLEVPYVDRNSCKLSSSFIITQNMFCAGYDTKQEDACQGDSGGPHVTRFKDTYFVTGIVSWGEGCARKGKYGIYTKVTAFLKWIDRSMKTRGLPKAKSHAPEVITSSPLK
Experiment: cell-based or functional assay
OBSERVABLE: % inhibition at 100 µM

Prompt: Tell me the measured % inhibition at 100 µM of XCTKSDPPICY (HELM PEPTIDE1{[Nle].C.T.K.S.D.P.P.I.C.Y.[dP].P}$PEPTIDE1,PEPTIDE1,2:R3-10:R3|PEPTIDE1,PEPTIDE1,1:R1-13:R2$$$V2.0; SMILES CCCC[C@@H]1NC(=O)[C@@H]2CCCN2C(=O)[C@H]2CCCN2C(=O)[C@H](Cc2ccc(O)cc2)NC(=O)[C@@H]2CSSC[C@H](NC1=O)C(=O)N[C@@H]([C@@H](C)O)C(=O)N[C@@H](CCCCN)C(=O)N[C@@H](CO)C(=O)N[C@@H](CC(=O)O)C(=O)N1CCC[C@H]1C(=O)N1CCC[C@H]1C(=O)N[C@@H]([C@@H](C)CC)C(=O)N2) [Example 44] , please.
Response: 9%
